koff by entry:
Molecular target: T1, human IL-23 (human, UniProt P29460 23-328; Q9NPF7 20-189)
T1 construct: Recombinant (Ebioscience); HIS-tagged in flow cytometry, biotinylated in some assays; also called hIL-23; rhIL-23
T1 sequence 1: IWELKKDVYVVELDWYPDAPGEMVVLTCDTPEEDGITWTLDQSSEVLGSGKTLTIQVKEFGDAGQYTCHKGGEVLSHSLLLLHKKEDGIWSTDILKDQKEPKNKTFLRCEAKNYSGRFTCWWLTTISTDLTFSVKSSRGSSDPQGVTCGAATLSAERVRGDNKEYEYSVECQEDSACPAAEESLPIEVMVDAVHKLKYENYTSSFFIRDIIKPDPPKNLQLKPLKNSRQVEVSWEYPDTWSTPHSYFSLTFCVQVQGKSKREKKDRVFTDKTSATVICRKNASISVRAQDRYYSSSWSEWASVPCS
T1 sequence 2: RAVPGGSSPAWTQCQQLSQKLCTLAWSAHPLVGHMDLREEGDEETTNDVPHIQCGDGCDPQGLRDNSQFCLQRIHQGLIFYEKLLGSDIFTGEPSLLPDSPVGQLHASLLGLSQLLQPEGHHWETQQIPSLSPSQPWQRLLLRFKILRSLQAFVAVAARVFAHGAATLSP
Test: SPR, single 81 nM analyte, scFv via FLAG; LOD about 1 × 10^-5 s^-1

* scFv combo. # 7 (scFv, scFv-80 with VH F29L, Y59H; not shown: proprietary C-terminal FLAG tag) scFv: QVQLVQSGAEVKKPGASVKVSCKASGYTLTDYYLHWVRQAPGQGLEWMGWIDPENGDTEHAPKFQGRVTMTTDTSTSTAYMELRSLRSDDTAVYYCNANKELRYFDVWGQGTMVTVSSGGGGSGGGGSGGGGSEIVMTQSPATLSVSPGERATLSCRASQSISINLHWYQQKPGQAPRLLIYFASQSISGIPARFSGSGSGTEFTLTISSLQSEDFAVYYCQQSNSFPLTFGGGTKVEIKR | < 1e-05 s⁻¹

I have this binder here, scFv combo. # 1 (scFv, scFv-80 with VH Q43R, Y59H; VL I55T; not shown: proprietary C-terminal FLAG tag) scFv: QVQLVQSGAEVKKPGASVKVSCKASGYTFTDYYLHWVRQAPGRGLEWMGWIDPENGDTEHAPKFQGRVTMTTDTSTSTAYMELRSLRSDDTAVYYCNANKELRYFDVWGQGTMVTVSSGGGGSGGGGSGGGGSEIVMTQSPATLSVSPGERATLSCRASQSISINLHWYQQKPGQAPRLLIYFASQSTSGIPARFSGSGSGTEFTLTISSLQSEDFAVYYCQQSNSFPLTFGGGTKVEIKR , and I need its recorded koff.
< 1e-05 s⁻¹

Please give the measured koff for this binder: scFv combo. # 8 (scFv, scFv-80 with VH F29L, Y59S; not shown: proprietary C-terminal FLAG tag) scFv: QVQLVQSGAEVKKPGASVKVSCKASGYTLTDYYLHWVRQAPGQGLEWMGWIDPENGDTESAPKFQGRVTMTTDTSTSTAYMELRSLRSDDTAVYYCNANKELRYFDVWGQGTMVTVSSGGGGSGGGGSGGGGSEIVMTQSPATLSVSPGERATLSCRASQSISINLHWYQQKPGQAPRLLIYFASQSISGIPARFSGSGSGTEFTLTISSLQSEDFAVYYCQQSNSFPLTFGGGTKVEIKR
< 1e-05 s⁻¹

Entry scFv combo. # 12 (scFv, scFv-80 with VH T28A, Y59S, T68S; not shown: proprietary C-terminal FLAG tag) scFv: QVQLVQSGAEVKKPGASVKVSCKASGYAFTDYYLHWVRQAPGQGLEWMGWIDPENGDTESAPKFQGRVSMTTDTSTSTAYMELRSLRSDDTAVYYCNANKELRYFDVWGQGTMVTVSSGGGGSGGGGSGGGGSEIVMTQSPATLSVSPGERATLSCRASQSISINLHWYQQKPGQAPRLLIYFASQSISGIPARFSGSGSGTEFTLTISSLQSEDFAVYYCQQSNSFPLTFGGGTKVEIKR : reported koff = ?
< 1e-05 s⁻¹
